Target: human recombinant BACE2 (Homo sapiens (Human), UniProt Q9Y5Z0)
Sequence (Q9Y5Z0 63-518): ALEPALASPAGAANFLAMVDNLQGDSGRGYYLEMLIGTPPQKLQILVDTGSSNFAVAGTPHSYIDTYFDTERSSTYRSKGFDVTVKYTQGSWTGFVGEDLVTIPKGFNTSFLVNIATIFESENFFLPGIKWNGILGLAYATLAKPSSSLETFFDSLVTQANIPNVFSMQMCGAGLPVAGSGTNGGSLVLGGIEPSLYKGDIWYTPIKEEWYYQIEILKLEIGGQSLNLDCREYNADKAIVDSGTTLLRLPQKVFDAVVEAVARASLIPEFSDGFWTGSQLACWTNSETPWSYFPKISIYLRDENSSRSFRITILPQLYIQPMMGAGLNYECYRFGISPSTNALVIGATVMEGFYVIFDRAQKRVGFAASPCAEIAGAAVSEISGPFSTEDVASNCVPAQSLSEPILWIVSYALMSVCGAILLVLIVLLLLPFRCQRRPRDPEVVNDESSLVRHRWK
Experiment: In vitro enzymatic BACE2 FRET assay
Type: biochemical
Conditions: read-out: IC50 IP (μM) BACE2 enzyme
Mark 1.0 only for IC50 values smaller than 0.04 µM; exact matches and larger values are 0.0.

Solved entries (count: 5):
> print(dat)
                                        mol  group.label
1  C#CCOc1cnc(C(=O)Nc2cc(F)c(F)c([C@@]3(C)N=C(N)S[C@@]4(COCC)C[C@H]43)c2)cn1          1.0
2  Cc1noc(COc2cnc3c(Nc4ccc(F)c([C@@]5(CF)N=C(N)S[C@@]6(CF)C[C@H]65)c4)nccc3n2)n1          0.0
3  C#CCOc1cnc(C(=O)Nc2ccc(F)c([C@@]3(C)N=C(N)S[C@@]4(C(=O)N5CCCC5)C[C@H]43)c2)cn1          1.0
4  C#CCOc1cnc2c(Nc3cnc(F)c([C@@]4(C)N=C(N)S[C@@]5([C@H](OC)C(F)(F)F)C[C@H]54)c3)nccc2n1          1.0
5  C[C@]1(c2cc(NC(=O)c3ccc(OCC(F)(F)C(F)F)cn3)ccc2F)N=C(N)S[C@]2(CO)[C@H]1C2(F)F          0.0

Determine whether this compound shows IC50 lower than 0.04 µM (ties excluded): "NC1=N[C@](CF)(c2cc(Nc3nccc4nc(OCc5cocn5)cnc34)cc(F)c2F)[C@@H]2C[C@@H]2S1" 0.0

Determine whether this compound shows IC50 lower than 0.04 µM (ties excluded): "COC[C@]12C[C@H]1[C@@](C)(c1cc(Nc3ncnc4cc(OCc5ncco5)cnc34)cc(F)c1F)N=C(N)S2" 1.0

Determine whether this compound shows IC50 lower than 0.04 µM (ties excluded): "C#CCOc1cnc(C(=O)Nc2ccc(F)c([C@@]3(CF)N=C(N)S[C@@]4(COCC(F)(F)F)C[C@H]43)c2)cn1" 1.0

Determine whether this compound shows IC50 lower than 0.04 µM (ties excluded): "C[C@]1(c2cc(Nc3nccc4nc(OCc5ncco5)cnc34)ccc2F)N=C(N)S[C@@]2(C(=O)NC3CC3)C[C@H]21" 0.0

Determine whether this compound shows IC50 lower than 0.04 µM (ties excluded): "C#CCOc1cnc2c(Nc3ccc(F)c([C@@]4(C)N=C(N)S[C@]5(CO)[C@H]4C5(F)F)c3)nccc2n1" 1.0

Determine whether this compound shows IC50 lower than 0.04 µM (ties excluded): "N#CC[C@]12C[C@H]1[C@@](CF)(c1cc(Nc3nccc4nc(OCc5ncco5)cnc34)ccc1F)N=C(N)S2" 0.0

Determine whether this compound shows IC50 lower than 0.04 µM (ties excluded): "C#CCOc1cnc(C(=O)Nc2cc(F)c(F)c([C@@]3(C)N=C(N)S[C@@]4(C#N)C[C@H]43)c2)cn1" 1.0

Each recorded value in this set is attributed to patent US20160046618A1.
